Where do the numbers come from? From PubChem BioAssay.

Assay: drug combination growth inhibition, ovarian cancer – cell-based, oncology-focused library, rucaparib conditional, profiling panel (AID 1508598)
Conditions: patient-derived ovarian cancer cells, CellTiter-Glo viability, 144 h; at 0.000305 µM; OCI-C5x cells; without rucaparib; active compounds read low
The source made the active and inactive calls.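 Rule for the calls: active = normalized viability below 100% at a tested concentration; inactive = the rest.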
We begin with a simple list: items and their reported viability.

Check out these entries, answers already filled in.
Compound | Observed property | Measured
Cc1cc2c(C(=O)NC[C@H](C)c3ccccc3)c(O)c(O)cc2c(O)c1-c1c(C)cc2c(C(=O)NC[C@H](C)c3ccccc3)c(O)c(O)cc2c1O | viability | 108% (inactive)
CCOC(=O)c1cnc2ccc(-c3cncc(NS(=O)(=O)c4ccccc4)c3)cn12 | viability | 99.1% (active)
CO[C@H]1/C=C\C=C(\C)C(=O)NC2=CC(=O)C(NCCN(C)C)=C(C[C@@H](C)C[C@H](OC)[C@H](O)[C@@H](C)/C=C(\C)[C@@H]1OC(N)=O)C2=O | viability | 108% (inactive)
CC(=O)OCC(=O)[C@]1(O)[C@H](C)C[C@H]2[C@@H]3CCC4=CC(=O)C=C[C@]4(C)[C@]3(F)[C@H](O)C[C@@]21C | viability | 119% (inactive)
CCC(C)(C)C(=O)O[C@@H]1C[C@@H](C)C=C2C=C[C@H](C)[C@@H](CC[C@@H]3C[C@@H](O)CC(=O)O3)[C@H]21 | viability | 119% (inactive)

Give the value of viability reported for the following: "O=C(NCC1(c2nc(-c3ccccc3)cs2)CCOCC1)c1cccc(-c2noc(C(F)(F)F)n2)c1" 111% (inactive)

In one line, give reported viability of the entry CC(C)CC(CC(=O)NO)C(=O)N[C@@H](Cc1ccc2ccccc2c1)C(=O)N[C@@H](C)C(=O)NCCN (some centres undefined) . 120% (inactive)

Dear colleague, please send me the reported viability for "COc1cc2c(cc1O)CC[C@@H]1[C@H]2CC[C@]2(C)[C@H](O)CC[C@@H]12" when you can. 107% (inactive)

Note viability for the compound shown: "NC(=O)CCCSc1nc(N)nc(-c2c(Cl)cc3c4c(cccc24)COC3)n1" 95.8% (active)

Let me know recorded viability for CCOC(=O)c1[nH]c2cc(Cl)ccc2c1C(C(=O)NC(C)(C)C)N(C=O)Cc1ccc(Cl)cc1 (centres undefined) , thanks. 105% (inactive)

* * *

Assay: viability loss with induced miR-34 in A549 – imaging, A549 dox-inducible miR-34, nuclei and caspase counts, primary screen (AID 1347080)
Conditions: A549 miR-34 inducible, Hoechst nuclei count, 48 h; active compounds read low; cell number ratio, induced over uninduced
Calls of active or inactive are those of the source.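 How the source made its calls: active means compounds whose cell count with miR-34 switched on is under 0.7 times the count with it off; inactive means the rest.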
Each entry below lists one item and its recorded fold change value.

Compound | fold change
Cc1cc(Nc2ccc(NC(=O)c3ccc(Nc4ccnc5ccccc45)cc3)cc2)nc(N)n1 | 0.978 (inactive)
C[C@]12C=CC(=O)N[C@@H]1CC[C@@H]1[C@H]2CC[C@]2(C)C(C(=O)Nc3cc(C(F)(F)F)ccc3C(F)(F)F)CC[C@@H]12 (stereo not given in full) | 0.962 (inactive)
Cc1onc(-c2c(Cl)cccc2Cl)c1C(=O)NC1C(=O)N2C1SC(C)(C)C2C(=O)O (stereo not given) | 0.869 (inactive)
CC(C)(CO)c1cc2cc(NC(=O)C3(c4ccc5c(c4)OC(F)(F)O5)CC3)c(F)cc2n1CC(O)CO (stereo not given) | 0.912 (inactive)

# input for lookup
Query fold change for "COC(=O)CNC(=O)C(=O)OC" 0.976 (inactive)
